I'd appreciate it if you could supply TGI values for the items below.
Tested on: HCT-15 colon
Assay: NCI tumour cell line growth inhibition, 48 h

In plain terms, Cc1nn(C(=O)c2ccncc2)c2c1C(c1ccc(Cl)cc1)SC(N)=N2 (centres undefined) has a documented TGI of > 10 µM

In plain terms, c1ccc(-c2ccc(-c3cc4ccccc4[nH]3)cc2)cc1 has a documented TGI of > 100 µM

In plain terms, N#Cc1c(N)nc(N2CCOCC2)c(C#N)c1-c1ccc(Cl)cc1 has a documented TGI of > 100 µM

In plain terms, N#Cc1c(-c2ccc(Cl)cc2)c(C#N)c(=O)n(NS(=O)(=O)c2ccccc2)c1S has a documented TGI of 49.6 µM

In plain terms, O=c1c2cc(Br)ccc2nc(-c2ccccc2Cl)n1NCC1(O)OCC(O)C(O)C1O (centres undefined) has a documented TGI of > 100 µM

Give TGI for each listed item.
1. O=C1OC(CC(=O)c2ccc(Cl)cc2Cl)C(Cl)=C1Cl (centres undefined)
2. NNC(=O)CCC(=O)Nc1cc(Cl)c(Cl)cc1Cl
3. COc1ccc(C(=O)c2sc(Nc3ccccc3)nc2N)cc1
4. COc1cc2c3c(n(CCCNCC(OC)OC)c(=O)c2cc1OC)-c1cc2c(cc1C3=O)OCO2
5. CC1=C(C(=O)Nc2cccc(Cl)c2)C(c2ccc([N+](=O)[O-])cc2)C(C(=O)Nc2cccc(Cl)c2)=C(C)N1

Result:
1. > 70.6 µM
2. > 100 µM
3. > 100 µM
4. > 100 µM
5. 79.8 µM

Give TGI for each listed item.
1. C(=C\c1nccs1)/c1cccc(/C=C/c2nccs2)n1
2. O=C1NCCCC12CCCNC2=O
3. C=C(C(=O)O)C1CCC(CC/C=C(\C)CC/C=C(\C)CCC=C(C)C)CO1 (centres undefined)
4. Cc1cccc(NC(=O)c2cc3cc(N=Nc4ccccc4Cl)ccc3oc2=O)c1
5. CC(=O)O[C@@H]1[C@H]2[C@@H](OC(=O)c3ccccc3)[C@@H](C)C[C@]2(O)[C@H](OC(C)=O)[C@@]2(C)[C@@H]3CC(C)(C)C(=O)[C@]3(OC(C)=O)C[C@@]12C
6. CC(CN1CCN(C)CC1)CN1c2ccccc2Sc2ccc(C(F)(F)F)cc21 (centres undefined)
7. [C-]#[O+].[C-]#[O+].[C-]#[O+].[C-]#[O+].[Ir].[Ir].[O-]c1ccc2ccccc2c1C=Nc1ccc(N=Cc2c([O-])ccc3ccccc23)cc1
8. COc1ccc(N(C)Sc2ccccc2)cc1

Result:
1: > 50 µM; 2: > 100 µM; 3: 31.9 µM; 4: > 100 µM; 5: > 25 µM; 6: 3.95 µM; 7: > 100 µM; 8: > 100 µM

In plain terms, O=C1NC(=S)NC(=O)C1C(c1ccc([N+](=O)[O-])cc1)C1C(=O)NC(=S)NC1=O has a documented TGI of > 100 µM

====

Tested on: DMS 114 small cell lung
Experiment: NCI tumour cell line growth inhibition, 48 h
assay_metric: TGI (µM)
Give bare numbers, in µM.

As a guide, the following entries are already answered.
In plain terms, O=C(/C=C/c1ccc(Cl)c(Cl)c1)c1ccc(F)cc1 has a documented TGI of 30

In plain terms, Cc1cc(NC(=O)NC(=O)c2ccccc2N)ccc1Oc1ncc(Br)cn1 has a documented TGI of 0.0209

More entries:
In plain terms, COP(=O)(OC)C(=NCc1ccccc1)NNc1ccc([N+](=O)[O-])cc1 has a documented TGI of 76

====

I'd appreciate it if you could supply TGI values for the items below.
Test system: T-47D breast
Assay: NCI tumour cell line growth inhibition, 48 h

In plain terms, CC1(C)C2CCC(N)(C2)C1N (centres undefined) has a documented TGI of > 100 µM

In plain terms, C(=C\c1nccs1)/c1cccc(/C=C/c2nccs2)n1 has a documented TGI of > 50 µM

In plain terms, NC(=O)c1cc([N+](=O)[O-])c(Cl)c([N+](=O)[O-])c1 has a documented TGI of 5.12 µM

In plain terms, C/C(=N\NC(=S)NC1CCCC1)c1ccccn1 has a documented TGI of > 23.9 µM

In plain terms, CS(=O)(=O)c1ccc(-c2cnc(N)c(C(=O)Nc3ccccc3)n2)cc1 has a documented TGI of > 100 µM

In plain terms, Cc1cccc2c(=O)c3c(O)cc(O)cc3[nH]c12 has a documented TGI of > 10 µM

Give TGI for each listed item.
1. COc1cccc(Nc2nc(-c3cccs3)nc3ccc(Br)cc23)c1
2. C=C1CCC2CC1[C@@H](C(=O)c1c[nH]c3ccccc13)NC2(C)C (some centres undefined)
3. C=C(C(=O)O)C1CCC(CC/C=C(\C)CC/C=C(\C)CCC=C(C)C)CO1 (centres undefined)

Result:
> 100 µM
> 37.5 µM
> 100 µM

====

System: 786-0 renal
Experiment: NCI tumour cell line growth inhibition, 48 h
Where a SMILES comes first, the peptide text is derived from it. The star is where a group is joined. Cbz = O=C(OCc1ccccc1)*; Boc = CC(C)(C)OC(=O)*; Bn = c1ccc(C*)cc1
assay_metric: TGI

In plain terms, CC(C)(C)OC(=O)NC(Cc1ccc(OCc2ccccc2)cc1)C(=O)NC(CCCCNC(=O)OCc1ccccc1)C(=O)O (centres undefined) (Boc-Tyr(Bn)-Lys(Cbz)-OH; configuration not given here) has a documented TGI of > 100 µM

In plain terms, CN(C)CCCNc1ncnc2nc[nH]c12 has a documented TGI of > 100 µM

Give TGI for each listed item.
1. COc1cc2nc(-c3cccs3)nc(N3C(c4ccc(O)cc4)=NNC(=O)c4ccccc43)c2cc1OC
2. CCC(CC)n1cc(C(=O)NC(=O)NCCCCCOC(=O)CCCCCCCCCCC(=O)OCCCCCNC(=O)NC(=O)c2cn(C(CC)CC)c(=O)[nH]c2=O)c(=O)[nH]c1=O

Result:
> 100 µM
> 100 µM

====

Tested on: NCI-H226 lung
Assay: NCI tumour cell line growth inhibition, 48 h
assay_metric: TGI

As a guide, the following entries are already answered.
In plain terms, O=c1c2c(c1=O)C1(SCCCS1)c1cc(Cl)ccc1O2 has a documented TGI of > 100 µM

In plain terms, Nc1ccc(C(=O)NN2C(=O)C(Cl)C2c2cc(Br)ccc2O)cc1 (centres undefined) has a documented TGI of > 100 µM

In plain terms, C=CCOC1=C(OCC=C)C(C2COC(C)(C)O2)OC1=O (centres undefined) has a documented TGI of > 100 µM

Could you now look at the following compound, please?
In plain terms, CC1=C(O)C(=O)C[C@]2(C)[C@H]3CC=C4[C@@H]5CC(C)(C)CC[C@@H]5C(=O)[C@H](O)[C@@]4(C)[C@]3(C)CC[C@@H]12 has a documented TGI of > 50 µM

====

System: NCI-H460 lung
Assay: NCI tumour cell line growth inhibition, 48 h
Assign true (1) to entries whose TGI meets or exceeds 3 µM; assign false (0) to the rest.

Solved cases (5 shown):
Task: Evaluate c1ccc(-c2cs[s+]c2)cc1 : TGI at minimum 3 µM?
Result: true (1)

Task: Evaluate O=C(Cn1cc(F)c(=O)[nH]c1=O)C12CC3CC(CC(C3)C1)C2 : TGI at minimum 3 µM?
Result: true (1)

Task: Evaluate O=C(CCCCCCSc1nc(-c2ccccc2)cc(-c2ccccc2)n1)NO : TGI at minimum 3 µM?
Result: true (1)

Task: Evaluate CN(c1ccc(NC(=O)Nc2ccc(OC(F)(F)F)cc2)cc1)c1ccnc(Nc2cccc(S(N)(=O)=O)c2)n1 : TGI at minimum 3 µM?
Result: true (1)

Task: Evaluate COc1cc(/C=C/C(=O)OC2C(O)C3CC(OC(=O)c4cc(OC)c(OC)c(OC)c4)CC2N3C)cc(OC)c1OC (centres undefined) : TGI at minimum 3 µM?
Result: true (1)

More entries:
Task: Evaluate N#Cc1c(N)nc(N2CCOCC2)c(C#N)c1-c1ccc(Cl)cc1 : TGI at minimum 3 µM?
Result: true (1)

Task: Evaluate C[C@H]1[C@H](C)CC[C@]2(C(=O)N3CCN(C)CC3)CC[C@]3(C)C(=CC[C@@H]4[C@@]5(C)C/C(=C/c6cccnc6)C(=O)C(C)(C)[C@@H]5CC[C@]43C)[C@H]12 : TGI at minimum 3 µM?
Result: false (0)

Task: Evaluate CC1=C(C(=O)Nc2cccc(Cl)c2)C(c2ccc([N+](=O)[O-])cc2)C(C(=O)Nc2cccc(Cl)c2)=C(C)N1 : TGI at minimum 3 µM?
Result: true (1)

Task: Evaluate CCc1ccccc1N1CCN(C(=O)c2cc(OC)c(OC)c(OC)c2)CC1 : TGI at minimum 3 µM?
Result: false (0)

====

Tested on: OVCAR-4 ovarian
Assay: NCI tumour cell line growth inhibition, 48 h
I'd appreciate it if you could supply TGI values for the items below.

As a guide, the following entries are already answered.
In plain terms, CC1CC2C(=O)N(c3ccccc3)C(=O)C2c2c1c1ccccc1n2Cc1ccccc1 (stereo not drawn) has a documented TGI of > 100 µM

In plain terms, COc1ccc(-c2cc(-c3ccccc3)nc(N3CCN(CCNc4ccnc5cc(Cl)ccc45)CC3)n2)cc1 has a documented TGI of 4.05 µM

In plain terms, O=C(N/N=C/c1ccc([N+](=O)[O-])cc1)c1cccc2nc3ccccc3nc12 has a documented TGI of > 100 µM

In plain terms, N#CCC(=O)c1cc(OCc2cc(OCc3ccc(Br)cc3)cc(OCc3ccc(Br)cc3)c2)cc(OCc2cc(OCc3ccc(Br)cc3)cc(OCc3ccc(Br)cc3)c2)c1 has a documented TGI of > 100 µM

In plain terms, CCCCCCCCCCCCCCCCCCNc1ccn(C2OC(CO)C(O)C2O)c(=O)n1 (stereo not drawn) has a documented TGI of > 100 µM

In plain terms, Cc1cnc(/N=c2\sc(C)cn2-c2ncc(C)s2)s1 has a documented TGI of > 100 µM

Give TGI for each listed item.
1. OCC1OC(Oc2cc(O)cc(/C=C/c3ccc(O)cc3)c2)C(O)C(O)C1O (stereo not drawn)
2. CC(=O)O[C@@H]1[C@H]2[C@@H](OC(=O)c3ccccc3)[C@@H](C)C[C@]2(O)[C@H](OC(C)=O)[C@@]2(C)[C@@H]3CC(C)(C)C(=O)[C@]3(OC(C)=O)C[C@@]12C
3. C=CCOc1ccc(/C(N=Nc2ccccc2)=N/NC(=O)c2ccccc2)cc1OC

Result:
1. > 100 µM
2. > 25 µM
3. > 100 µM
